Biological target: human muscarinic M1 receptor (Homo sapiens, UniProt P11229)
Assay: Alphascreen Surefire phospho-ERK1/2 functional assay, M1
Type: cell-based
Conditions: CHO cells stably expressing human M1, read-out: pEC50 M1 (converted)
Please respond with reported EC50 for every item in the list.
State just the number; it will be interpreted in nM.

Request: # get_value(readout='EC50', item= CC(C)OC(=O)N1C2CCC1CC(N1CCC3(CC1)CNC(=O)C3)C2 (single isomer, unassigned) [Example 2-33 Isomer 2] )
Response: 398

Request: What EC50 value was documented for this molecule, CCOC(=O)N1CC2CCC1CC2N1CCC2(CC1)CNC(=O)C2 (single isomer, unassigned) [Example 3-1 Isomer 4] ?
Response: 1260

Request: Form field: reported EC50 of CCOC(=O)N1CC2CCC(C1)C2N1CCC2(CC1)CNC(=O)C2 (single isomer, unassigned) [Example 4-1 Isomer 2]
Response: 501

Request: What does the data say about its EC50? Entry: C#CCOC(=O)N1C2CCC1CC(N1CCC3(CC1)CNC(=O)C3)C2 (single isomer, unassigned) [Example 2-4 Isomer 2]
Response: 20

Request: Please look up its EC50: CC(C)OC(=O)N1C2CCC1CC(N1CCC3(CC1)CNC(=O)C3)C2 (single isomer, unassigned) [Example 2-33 Isomer 1]
Response: 31.6

Request: Query: EC50; subject: CCOC(=O)N1C2CCCC1CC(N1CCC3(CC1)CNC(=O)O3)C2 (single isomer, unassigned) [Example 5-4 Isomer 2]
Response: 158

====

Target: human muscarinic M4 receptor (Homo sapiens, UniProt P08173)
Construct: expressed in transfected cells
Sequence (P08173 1-479): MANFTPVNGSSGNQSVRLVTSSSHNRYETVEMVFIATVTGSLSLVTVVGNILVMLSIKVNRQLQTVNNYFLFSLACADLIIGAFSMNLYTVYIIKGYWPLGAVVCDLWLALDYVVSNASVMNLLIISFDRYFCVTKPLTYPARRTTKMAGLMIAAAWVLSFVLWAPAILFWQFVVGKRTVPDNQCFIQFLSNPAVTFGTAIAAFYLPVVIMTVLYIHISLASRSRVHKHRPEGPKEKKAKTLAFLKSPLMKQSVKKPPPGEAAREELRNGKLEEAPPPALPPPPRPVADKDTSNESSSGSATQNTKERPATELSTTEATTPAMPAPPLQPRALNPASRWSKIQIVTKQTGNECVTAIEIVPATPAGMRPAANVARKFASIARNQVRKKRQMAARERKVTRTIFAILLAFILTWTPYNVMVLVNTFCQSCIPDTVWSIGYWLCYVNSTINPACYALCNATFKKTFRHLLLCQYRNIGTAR
Assay: Alphascreen Surefire phospho-ERK1/2 functional assay, M4
Type: cell-based
Details: CHO, read-out: % Emax cf. ACh, M4, CHO cells stably expressing human M4, relative to ACh
Give Emax for every item shown.
Give the quantity in %, number only.

Request: Fill in: Emax of C#CCOC(=O)N1C2CCC1CC(N1CCC3(CC1)CNC(=O)C3)C2 (single isomer, unassigned) [Example 2-4 Isomer 1] is ___
Response: 64

Request: Need Emax, item C#CCOC(=O)N1C2CCCC1CC(N1CCC3(CC1)CNC(=O)C3)C2 (single isomer, unassigned) [Example 5-2 Isomer 1]
Response: 37

Request: Could you tell me which Emax is on file for CCOC(=O)N1CC2CCC1CC2N1CCC2(CC1)OC(=O)NC2CC (single isomer, unassigned) [Example 3-3 Isomer 2] ?
Response: 56

Request: Please look up its Emax: CCOC(=O)N1CC2CC(N3CCC4(CC3)CNC(=O)O4)CC1C2 (single isomer, unassigned) [Example 6-3 Isomer 2]
Response: 81

Request: // Emax lookup, key: [2H]C([2H])([2H])C([2H])([2H])OC(=O)N1C2CCC1CC(N1CCC3(CC1)CNC(=O)C3)C2 (single isomer, unassigned) [Example 2-32 Isomer 1]
Response: 40

Request: Could you tell me which Emax is on file for CCOC(=O)N1C2CCC1CC(N1CCC3(CC1)CNC(=O)O3)C2 (single isomer, unassigned) [Example 2-14 Isomer 1] ?
Response: 55

Request: Please report the recorded Emax for CCOC(=O)N1C2CCC1CC(N1CCC3(CC1)CC(=O)N(CC1CC1)C3)C2 (single isomer, unassigned) [Example 2-28 Isomer 2] .
Response: 27

Request: What value of Emax has been reported for the following compound? CCCC(=O)N1C2CCC1CC(N1CCC3(CC1)CNC(=O)C3)C2 (single isomer, unassigned) [Example 2-6 Isomer 2]
Response: 32

Request: Look up Emax: CC(C)OC(=O)N1C2CCC1CC(N1CCC3(CC1)CNC(=O)C3)C2 (single isomer, unassigned) [Example 2-33 Isomer 1]
Response: 20

Request: Entry CCOC(=O)N1C2CC[C@@H]1C[C@H](N1CCC3(CC1)CC(=O)N(O)C3)C2 [Example 2-24] : reported Emax = ?
Response: 29

Request: What value of Emax has been reported for the following compound? CCOC(=O)N1C2CCC1CC(N1CCCC3(CC1)CNC(=O)C3)C2 (single isomer, unassigned) [Example 9-1 Isomer 2]
Response: 60

Request: Would you mind telling me what Emax value was observed for CCOC(=O)N1C2CCC1CC(N1CCC3(CC1)OC(=O)NC3C)C2 (single isomer, unassigned) [Example 2-15 Isomer 1] ?
Response: 10

Request: Given the entry CCOC(=O)N1CC2CC(N3CCC4(CC3)CNC(=O)C4)CC1C2 (single isomer, unassigned) [Example 6-2 Isomer 2] , report its measured Emax.
Response: 78

====

Target: human muscarinic M2 receptor (Homo sapiens, UniProt P08172)
Sequence (P08172 whole entry): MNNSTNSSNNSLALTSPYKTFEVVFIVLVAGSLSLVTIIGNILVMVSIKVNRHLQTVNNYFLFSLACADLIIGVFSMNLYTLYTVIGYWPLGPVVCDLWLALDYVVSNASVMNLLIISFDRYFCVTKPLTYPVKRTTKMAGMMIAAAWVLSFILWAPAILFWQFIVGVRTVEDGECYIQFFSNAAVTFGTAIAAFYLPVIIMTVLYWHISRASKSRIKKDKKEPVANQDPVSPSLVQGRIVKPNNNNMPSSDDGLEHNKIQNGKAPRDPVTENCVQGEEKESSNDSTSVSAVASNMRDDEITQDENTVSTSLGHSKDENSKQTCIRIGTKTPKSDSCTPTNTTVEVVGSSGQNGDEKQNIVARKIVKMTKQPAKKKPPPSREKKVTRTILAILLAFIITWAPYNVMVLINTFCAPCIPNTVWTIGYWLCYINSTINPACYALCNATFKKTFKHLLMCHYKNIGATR
Test: Alphascreen Surefire phospho-ERK1/2 functional assay, M2
Assay type: cell-based
Settings: CHO, read-out: % Emax cf. ACh, M2, CHO cells stably expressing human M2, relative to ACh
Recorded endpoint: Emax

Request: Look up Emax: CCOC(=O)N1C2CCCC1CC(N1CCC3(CC1)CNC(=O)C3)C2 (single isomer, unassigned) [Example 5-1 Isomer 1]
Response: 17%

Request: Value lookup for Emax; key = CCOC(=O)N1C2CCC1CC(N1CCC3(CC1)CC(=O)N(CC)C3)C2 (single isomer, unassigned) [Example 2-13 Isomer 2]
Response: 11%

Request: What measured Emax goes with CCOC(=O)N1C2CCC1CC(N1CCC3(CC1)CNC(=O)O3)C2 (single isomer, unassigned) [Example 2-14 Isomer 2] ?
Response: 0%

Request: Param item = CC#CCOC(=O)N1C2CCC1CC(N1CCC3(CC1)CNC(=O)C3)C2 (single isomer, unassigned) [Example 2-5 Isomer 1] ; retrieve measured Emax.
Response: 39%

Request: Dear colleague, I am looking for the recorded Emax of the following compound: [2H]C([2H])([2H])C([2H])([2H])OC(=O)N1C2CCC1CC(N1CCC3(CC1)CNC(=O)C3)C2 (single isomer, unassigned) [Example 2-32 Isomer 1]
Response: 16%

Request: Tell me the measured Emax of CCOC(=O)N1C2CCC1CC(N1CCC3(CC1)CNC(=O)C3)C2 (single isomer, unassigned) [Example 2-2 Isomer 2] , please.
Response: 0%

Request: So what does the record say about Emax for CCOC(=O)N1C2CC[C@@H]1C[C@H](N1CCC3(CC1)CC(=O)N(O)C3)C2 ?
Response: 4%

Request: Fill in: Emax of CCOC(=O)N1CC2CC(N3CCC4(CC3)CNC(=O)O4)CC1C2 (single isomer, unassigned) [Example 6-3 Isomer 2] is ___
Response: 24%

Request: Recorded Emax of CCOC(=O)N1C2CCC1C(F)C(N1CCC3(CC1)CNC(=O)C3)C2 (single isomer, unassigned) [Example 2-11 Isomer 2] , please.
Response: 18%

Request: Quick one: Emax for CCCC1NC(=O)CC12CCN(C1CC3CCC(C1)N3C(=O)OCC)CC2 (single isomer, unassigned) [Example 2-9 Isomer 1] ?
Response: 2%

====

Please go through the items and note down their Emax.
Biological target: human muscarinic M1 receptor (Homo sapiens)
Sequence (P11229 1-460): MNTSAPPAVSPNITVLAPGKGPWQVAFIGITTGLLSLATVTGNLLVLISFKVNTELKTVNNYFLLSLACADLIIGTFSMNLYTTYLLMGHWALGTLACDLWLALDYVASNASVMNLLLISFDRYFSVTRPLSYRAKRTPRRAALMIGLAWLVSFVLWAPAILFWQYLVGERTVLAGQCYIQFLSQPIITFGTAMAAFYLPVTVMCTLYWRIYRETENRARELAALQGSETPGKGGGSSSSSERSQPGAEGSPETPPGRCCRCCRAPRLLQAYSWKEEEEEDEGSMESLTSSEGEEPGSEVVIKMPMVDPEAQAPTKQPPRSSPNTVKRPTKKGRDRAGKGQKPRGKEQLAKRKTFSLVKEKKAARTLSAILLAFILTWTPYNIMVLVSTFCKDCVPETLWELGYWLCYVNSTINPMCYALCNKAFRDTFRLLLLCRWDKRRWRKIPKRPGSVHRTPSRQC
Test: Alphascreen Surefire phospho-ERK1/2 functional assay, M1
Assay type: cell-based
Conditions: CHO, read-out: % Emax cf. ACh, M1, CHO cells stably expressing human M1, relative to ACh
Write the answer as a number in %, unit excluded.

Request: Can you share its Emax? I mean this compound: CCOC(=O)N1C2CC[C@@H]1C[C@H](N1CCC3(CC1)CC(=O)N(O)C3)C2
Response: 88

Request: Given the compound CCCC(=O)N1C2CCC1CC(N1CCC3(CC1)CNC(=O)C3)C2 (single isomer, unassigned) [Example 2-6 Isomer 2] , what is its reported Emax?
Response: 35

Request: Item CCOC(=O)N1CC2CCC1CC2N1CCC2(CC1)OC(=O)NC2CC (single isomer, unassigned) [Example 3-3 Isomer 2] has what recorded Emax?
Response: 76

Request: Would you mind telling me what Emax value was observed for CC#CCOC(=O)N1[C@@H]2CCC[C@H]1CC(N1CCC3(CC1)CNC(=O)C3)C2 (mixture of isomers) ?
Response: 80

Request: What value of measured Emax is listed for C#CCOC(=O)N1C2CCC1CC(N1CCC3(CC1)CNC(=O)C3)C2 (single isomer, unassigned) [Example 2-4 Isomer 1] ?
Response: 92

Request: Suppose we examine the compound CCOC(=O)N1C2CCC1CC(N1CCC3(CC1)CNC(=O)O3)C2 (single isomer, unassigned) [Example 2-14 Isomer 1] ; what Emax value has been reported?
Response: 108

Request: Which Emax value belongs to CCOC(=O)N1C2CCC1C(F)C(N1CCC3(CC1)CNC(=O)C3)C2 (single isomer, unassigned) [Example 2-11 Isomer 1] ?
Response: 95

Request: Form field: reported Emax of CCOC(=O)N1CC2CC(N3CCC4(CC3)CNC(=O)C4)CC1C2 (single isomer, unassigned) [Example 6-2 Isomer 2]
Response: 118

Request: Given the entry CCOC(=O)N1C2CCC1CC(N1CCC3(CC1)OC(=O)NC3(C)C)C2 (single isomer, unassigned) [Example 2-18 Isomer 1] , report its measured Emax.
Response: 55

Request: Quick one: Emax of CCOC(=O)N1C2CCC1CC(N1CCC3(CC1)OC(=O)NC3C)C2 (single isomer, unassigned) [Example 2-15 Isomer 1] ?
Response: 101

Request: Query (compound): CCOC(=O)N1C2CCC1CC(N1CCC3(CC1)CC(=O)N(CC(C)C)C3)C2 (single isomer, unassigned) [Example 2-27 Isomer 2] ; field requested: Emax
Response: 38

Request: Need Emax of CCOC(=O)N1C2CCC1CC(N1CCC3(CC1)CC(=O)N(C(C)C)C3)C2 (single isomer, unassigned) [Example 2-26 Isomer 2] , thanks.
Response: 43

Request: Which Emax value is on record for CC#CCOC(=O)N1C2CCC1CC(N1CCC3(CC1)CNC(=O)C3)C2 (single isomer, unassigned) [Example 2-5 Isomer 1] ?
Response: 98
